Just for reference, patent US20230265151A1 is where these values come from.

Biological target: T1, human GIP receptor (human, UniProt P48546 22-466)
T1 sequence (looked up): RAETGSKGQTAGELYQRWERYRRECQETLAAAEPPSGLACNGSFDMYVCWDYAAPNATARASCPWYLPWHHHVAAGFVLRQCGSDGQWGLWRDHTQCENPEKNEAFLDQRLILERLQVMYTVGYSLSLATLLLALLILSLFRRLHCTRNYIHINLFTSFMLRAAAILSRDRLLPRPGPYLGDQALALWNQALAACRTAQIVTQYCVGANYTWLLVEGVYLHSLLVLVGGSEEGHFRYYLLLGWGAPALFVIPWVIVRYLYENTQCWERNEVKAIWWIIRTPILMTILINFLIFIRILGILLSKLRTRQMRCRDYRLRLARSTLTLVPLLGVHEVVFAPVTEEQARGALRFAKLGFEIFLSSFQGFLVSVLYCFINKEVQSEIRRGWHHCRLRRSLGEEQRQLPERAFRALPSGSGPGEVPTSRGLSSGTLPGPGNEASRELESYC
Assay: cell-based or functional assay
Could you please mark Condition met for values of EC50, cAMP below 0.03 nM and Condition not met for values at or above it?

A selection of reference data follows.
- binder: "YXEGTXTSDXSIXLDXKAQXEXIKXLIEGGPSSGAPPPS (Aib2, αMeF(2F)6, Ac5c10, αMeL13, Orn16, Aib20, αMeF22, αMeF25, K17 and K24: K(AEEA2-(γ-Glu)-CO-(CH2)12-CO2H), C-terminal NH2) [Example 124]"
  label-class: "Condition not met"
- binder: "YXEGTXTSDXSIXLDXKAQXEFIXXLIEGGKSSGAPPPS (Aib2, αMeF(2F)6, Ac4c10, αMeL13, Orn16, Aib20, D-Glu24, αMeY25, K17 and K31: K(AEEA2-(γ-Glu)-CO-(CH2)12-CO2H), C-terminal NH2) [Example 95]"
  label-class: "Condition not met"
- binder: "YXEGTXTSDXXIXLDXKAQXEFIKXLIEGGPSSGAPPPS (Aib2, αMeF(2F)6, 4Pal10, Aib11, αMeL13, Orn16, Aib20, αMeY25, K17 and K24: K(AEEA2-(γ-Glu)-CO-(CH2)12-CO2H), C-terminal NH2) [Example 113]"
  label-class: "Condition not met"
- binder: "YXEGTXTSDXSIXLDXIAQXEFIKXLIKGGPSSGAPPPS (Aib2, αMeF(2F)6, 4Pal10, αMeL13, Orn16, Aib20, αMeY25, K24 and K28: K(AEEA2-(γ-Glu)-CO-(CH2)12-CO2H), C-terminal NH2) [Example 70]"
  label-class: "Condition met"
- binder: "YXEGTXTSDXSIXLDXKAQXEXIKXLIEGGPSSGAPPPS (Aib2, αMeF(2F)6, 4Pal10, αMeL13, Orn16, Aib20, αMeF22, αMeY25, K17 and K24: K(AEEA2-(γ-Glu)-CO-(CH2)12-CO2H), C-terminal NH2) [Example 82]"
  label-class: "Condition met"

Continue with the next binder.
Item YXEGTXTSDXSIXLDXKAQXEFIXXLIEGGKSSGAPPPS (Aib2, αMeF(2F)6, 4Pal10, αMeL13, Orn16, Aib20, D-Glu24, αMeY25, K17 and K31: K(AEEA2-(γ-Glu)-CO-(CH2)12-CO2H), C-terminal NH2) [Example 1] : EC50, cAMP beneath 0.03 nM, strictly?
Condition met
